biological target: HPK1 (MAP4K1) (Homo sapiens, UniProt Q92918); experiment: FRET Assay for HPK1 (MAP4K1): one step binding assay, displacement of labeled tracer; conditions: 10 μM compound; FRET ratio 665/620, percent of control
Sequence (Q92918 whole entry): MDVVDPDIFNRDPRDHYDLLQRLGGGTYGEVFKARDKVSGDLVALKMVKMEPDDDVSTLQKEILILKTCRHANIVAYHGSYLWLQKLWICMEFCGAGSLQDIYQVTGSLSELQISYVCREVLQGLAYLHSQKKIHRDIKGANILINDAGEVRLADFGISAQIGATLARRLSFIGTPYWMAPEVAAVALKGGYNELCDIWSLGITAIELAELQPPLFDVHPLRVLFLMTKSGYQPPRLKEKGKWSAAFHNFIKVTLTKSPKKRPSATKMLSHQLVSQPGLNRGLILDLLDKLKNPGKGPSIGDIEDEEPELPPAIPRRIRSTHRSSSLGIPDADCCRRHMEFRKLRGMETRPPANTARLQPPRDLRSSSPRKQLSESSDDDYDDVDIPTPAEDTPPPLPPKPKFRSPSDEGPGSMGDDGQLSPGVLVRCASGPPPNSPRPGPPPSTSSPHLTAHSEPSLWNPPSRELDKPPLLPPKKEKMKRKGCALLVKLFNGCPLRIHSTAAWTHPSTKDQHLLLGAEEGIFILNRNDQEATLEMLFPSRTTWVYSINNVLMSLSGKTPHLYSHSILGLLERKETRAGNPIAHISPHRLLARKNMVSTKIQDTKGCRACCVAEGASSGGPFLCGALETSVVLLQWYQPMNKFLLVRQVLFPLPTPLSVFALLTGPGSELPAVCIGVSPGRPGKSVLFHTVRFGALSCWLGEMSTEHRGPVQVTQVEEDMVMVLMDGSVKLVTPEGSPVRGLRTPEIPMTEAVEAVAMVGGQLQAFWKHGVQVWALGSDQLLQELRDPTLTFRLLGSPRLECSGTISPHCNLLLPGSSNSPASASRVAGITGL
Strictly below 80% in inhibition at 10 µM: satisfied. Otherwise: not satisfied.

Ask: I'd appreciate it if you could check whether CNC(=O)Cn1ccc(N/C(C)=C2\C(=O)Nc3cnc(-c4cnccc4C)cc32)n1 [Example 114] has inhibition at 10 µM smaller than 80%.
Reply: satisfied

Ask: Hi there! Is inhibition at 10 µM for COc1cccc(F)c1-c1cc2c(cc1C#N)NC(=O)/C2=C(/C)Nc1cnn(C)c1 [Example 71] below 80%, do you know?
Reply: satisfied

Ask: Just wondering, is inhibition at 10 µM of C/C(Nc1cnn(CC[C@H](C)O)c1)=C1/C(=O)Nc2cnc(-c3cnccc3C)cc21 [Example 176] below 80%?
Reply: satisfied

Ask: Please check: inhibition at 10 µM for C/C(Nc1cnn(C)c1)=C1/C(=O)Nc2cnc(-c3c(C)cccc3F)cc21 [Example 164] , strictly under 80% or not?
Reply: satisfied

Ask: Criterion: inhibition at 10 µM strictly below 80%. Is it met by CNC(=O)C(F)(F)n1ccc(N/C(C)=C2\C(=O)Nc3cnc(-c4cnccc4C)cc32)n1 [Example 155] ?
Reply: satisfied

Ask: inhibition at 10 µM under 80%? Item: C/C(Nc1ccn(C)n1)=C1/C(=O)Nc2cccc(-c3cnccc3C)c21 [Example 157]
Reply: satisfied

Ask: For C/C(Nc1cnn(C2COC2)c1)=C1/C(=O)Nc2cnc(-c3cnccc3C)cc21 [Example 52] , is the recorded inhibition at 10 µM below the cut-off of 80%?
Reply: not satisfied

Ask: Just wondering, is inhibition at 10 µM of COc1cccc(F)c1-c1ccc2c(c1)/C(=C(\C)Nc1ccc(N3CCNCC3)cc1)C(=O)N2 [Example 8] below 80%?
Reply: not satisfied

Ask: Is 80% strictly greater than the molecule's reported inhibition at 10 µM? molecule: C/C(Nc1c(C)nn(C)c1C)=C1/C(=O)Nc2cnc(-c3cnccc3C)cc21 [Example 119]
Reply: satisfied

Ask: Quick check: does CCn1nc(N/C(C)=C2\C(=O)Nc3cnc(-c4cnccc4C)cc32)cc1C [Example 182] have inhibition at 10 µM under 80%?
Reply: satisfied

Ask: Input COCCn1ccc(N/C(C)=C2\C(=O)Nc3cnc(-c4cnccc4C)cc32)n1 [Example 143] ; condition: inhibition at 10 µM strictly below 80%. Does it hold?
Reply: not satisfied

Ask: Hello, I'm reviewing records and need to know if inhibition at 10 µM of C/C(Nc1cc2n(n1)CCOC2)=C1/C(=O)Nc2ccc(-c3cnccc3C)cc21 [Example 193] is below 80%. Could you check?
Reply: satisfied

Ask: Given C/C(Nc1ccn(CC(=O)N2CCOCC2)n1)=C1/C(=O)Nc2cnc(-c3cnccc3C)cc21 [Example 131] , is recorded inhibition at 10 µM strictly lower than 80%?
Reply: not satisfied

Ask: Could you please tell me whether inhibition at 10 µM recorded for C/C(Nc1cc(C)n(CCC(C)C)n1)=C1/C(=O)Nc2cnc(-c3cnccc3C)cc21 [Example 204] is less than 80%?
Reply: not satisfied

Ask: I wonder whether COc1cccc(F)c1-c1cc2c(cn1)NC(=O)/C2=C(/C)Nc1cnn(C)c1 [Example 16] has inhibition at 10 µM below 80%. Can you tell?
Reply: not satisfied

Ask: Strictly below 80% in inhibition at 10 µM? C/C(Nc1ccn(C)n1)=C1/C(=O)Nc2cnc(-c3cncc(F)c3C)cc21 [Example 154]
Reply: not satisfied

Ask: Confirm or reject: inhibition at 10 µM of C/C(Nc1cnn(C)c1)=C1/C(=O)Nc2cnc(-c3c(C)noc3C)cc21 [Example 55] lies strictly below 80%
Reply: not satisfied

Ask: Would you kindly verify if inhibition at 10 µM of C/C(Nc1ccn(CC[C@H](C)O)n1)=C1/C(=O)Nc2cnc(-c3cnccc3C)cc21 [Example 196] is strictly less than 80%?
Reply: satisfied

Ask: Lab note: inhibition at 10 µM threshold 80%. Does this molecule come in strictly under it? C/C(Nc1cnn(CC(F)(F)F)c1)=C1/C(=O)Nc2cnc(-c3cnccc3C)cc21 [Example 69]
Reply: satisfied

Ask: # TODO verify inhibition at 10 µM < 80% strictly for this molecule: CCOc1cccc(F)c1-c1cc2c(cn1)NC(=O)/C2=C(/C)Nc1cnn(CC)c1 [Example 22]
Reply: not satisfied

Ask: Quick check: inhibition at 10 µM of C/C(Nc1ccn(C(C)(C)CO)n1)=C1/C(=O)Nc2cnc(-c3cnccc3C)cc21 [Example 145] under 80%?
Reply: not satisfied

Ask: I wonder whether COc1cccc(F)c1-c1cc2c(cn1)NC(=O)/C2=C(/C)Nc1cnn(C(C)C#N)c1 (stereo not drawn) [Example 31] has inhibition at 10 µM below 80%. Can you tell?
Reply: not satisfied

Ask: Lab note: confirm whether the reported inhibition at 10 µM for this molecule is below 80%, equality not counting. molecule: CC/C(Nc1cnn(C)c1)=C1/C(=O)Nc2cnc(-c3c(F)cccc3OC)cc21 [Example 32]
Reply: not satisfied

Ask: Lab log: compare recorded inhibition at 10 µM with 80%; is it strictly lower for C/C(Nc1ccn(C)n1)=C1/C(=O)Nc2cnc(-c3cncc(N)c3C)cc21 [Example 140] ?
Reply: not satisfied

Ask: Field: below-cutoff. Rule: recorded inhibition at 10 µM strictly less than 80%. Subject: C/C(Nc1ccn(CC2CC2)n1)=C1/C(=O)Nc2cnc(-c3cnccc3C)cc21 [Example 103]
Reply: not satisfied

Ask: Determine if COc1cccc(F)c1-c1cc2c(cn1)NC(=O)/C2=C(/C)Nc1cnn(C[C@H](C)O)c1 [Example 173] shows inhibition at 10 µM strictly lower than 80%.
Reply: satisfied

Ask: Regarding CCn1ccc(N/C(C)=C2\C(=O)Nc3cnc(-c4cnccc4C)cc32)n1 [Example 73] , kindly confirm whether its inhibition at 10 µM is beneath 80%.
Reply: satisfied

Ask: Input C/C(Nc1cnn([C@@H](C)C#N)c1)=C1/C(=O)Nc2cnc(-c3cnccc3C)cc21 [Example 167] ; condition: inhibition at 10 µM strictly below 80%. Does it hold?
Reply: satisfied

Ask: Please state whether inhibition at 10 µM is below 80% for C/C(Nc1cnn(CCN2CCOCC2)c1)=C1/C(=O)Nc2cnc(-c3cnccc3C)cc21 [Example 87]
Reply: not satisfied

Ask: Criterion: inhibition at 10 µM strictly below 80%. Is it met by COc1cccc(F)c1-c1ccc2c(c1)/C(=C(/Nc1cnn(C)c1)c1ccccc1)C(=O)N2 [Example 15] ?
Reply: not satisfied
